- System: TK-10 renal
- Protocol Notes: NCI tumour cell line growth inhibition, 48 h

[
  {
    "Compound": "C=C(C)[C@@H]1C/C=C(/CO)CC[C@H]2O[C@]2(C)CC/C=C(\\C)CC1",
    "GI50": "9.74 µM"
  },
  {
    "Compound": "Cc1ccc2[nH]c3c(c2c1)N=c1ccccc1=NO3",
    "GI50": "38.2 µM"
  },
  {
    "Compound": "CCN(CC)CCCOc1ccc2ncnc(Nc3ccc(Oc4cccc(C(F)(F)F)c4)c(Cl)c3)c2c1",
    "GI50": "1.14 µM"
  },
  {
    "Compound": "CCCCCCCN(CCCCCCC)C(=N)c1ccnc2ccccc12",
    "GI50": "1.51 µM"
  },
  {
    "Compound": "CCN1C(=O)N(CC)C2C1NN=c1s/c(=C\\c3cccs3)c(=O)n12 (stereo not given)",
    "GI50": "> 100 µM"
  }
]

###

We begin with a simple list: items and their reported TGI.
- System: OVCAR-8 ovarian
- Protocol Notes: NCI tumour cell line growth inhibition, 48 h

[
  {
    "Molecule": "CCOc1cc(C(=O)O)c2c(ccc3ccc(OC)c(OC)c32)c1OC",
    "System Tested": "OVCAR-8 ovarian",
    "Result Qualifier": ">",
    "TGI / µM": 100
  },
  {
    "Molecule": "COC(=O)c1ccccc1NC(=S)NN(C)C",
    "System Tested": "OVCAR-8 ovarian",
    "Result Qualifier": ">",
    "TGI / µM": 100
  },
  {
    "Molecule": "COc1cc(NS(C)(=O)=O)ccc1NCc1cnc2ccc3[nH]cccc3c12",
    "System Tested": "OVCAR-8 ovarian",
    "Result Qualifier": "=",
    "TGI / µM": 75.7
  },
  {
    "Molecule": "CC(=O)OC12CC(C(F)(F)F)(C(F)(F)F)OC1(OC(C)=O)CC(C(F)(F)F)(C(F)(F)F)O2 (stereo not drawn)",
    "System Tested": "OVCAR-8 ovarian",
    "Result Qualifier": ">",
    "TGI / µM": 100
  },
  {
    "Molecule": "COc1cccc(-n2ncc3c(N/N=C/c4ccc(C)cc4)ncnc32)c1",
    "System Tested": "OVCAR-8 ovarian",
    "Result Qualifier": ">",
    "TGI / µM": 25
  },
  {
    "Molecule": "CC(=Nc1ccccc1)C1=C(O)C(Cc2cccc(F)c2)NC1=O (stereo not drawn)",
    "System Tested": "OVCAR-8 ovarian",
    "Result Qualifier": ">",
    "TGI / µM": 100
  },
  {
    "Molecule": "CCC#CC[C@H](O)C/C=C1/C(=O)C=C[C@@H]1C/C=C\\CCCC(=O)OC",
    "System Tested": "OVCAR-8 ovarian",
    "Result Qualifier": "=",
    "TGI / µM": 4.76
  },
  {
    "Molecule": "COc1cccc(OC(=O)c2ccc(C(F)(F)F)nc2Nc2c(C)cccc2Cl)c1",
    "System Tested": "OVCAR-8 ovarian",
    "Result Qualifier": "=",
    "TGI / µM": 46.3
  },
  {
    "Molecule": "CC(=O)O[C@@]12CO[C@@H]1C[C@H](O)[C@@]1(C)C(=O)[C@H](O)C3=C(C)[C@@H](OC(=O)[C@H](O)[C@@H](NC(=O)OC(C)(C)C)c4ccccc4)C[C@@](O)([C@@H](OC(=O)c4ccccc4)C12)C3(C)C (stereo partly drawn)",
    "System Tested": "OVCAR-8 ovarian",
    "Result Qualifier": "=",
    "TGI / µM": 50
  },
  {
    "Molecule": "O=C1C=CC(=O)C2C1Cc1ccccc1C2c1ccccc1 (stereo not drawn)",
    "System Tested": "OVCAR-8 ovarian",
    "Result Qualifier": "=",
    "TGI / µM": 78
  },
  {
    "Molecule": "CCNC(=O)NNc1ncnc2c1c(-c1ccc(Cl)cc1)cn2-c1ccc(C)cc1",
    "System Tested": "OVCAR-8 ovarian",
    "Result Qualifier": "=",
    "TGI / µM": 28.8
  },
  {
    "Molecule": "O=C1/C(=C/c2ccc(F)c(F)c2)CN(C(=O)C(Cl)Cl)C/C1=C\\c1ccc(F)c(F)c1",
    "System Tested": "OVCAR-8 ovarian",
    "Result Qualifier": "=",
    "TGI / µM": 1.31
  },
  {
    "Molecule": "CO[C@H]1CC[C@]2(C)C3=CC[C@@]4(C)C(CC[C@@H]4C(C)CC[C@@H](C)C(C)C)C(=CCC2C1)O3 (stereo partly drawn)",
    "System Tested": "OVCAR-8 ovarian",
    "Result Qualifier": ">",
    "TGI / µM": 25
  },
  {
    "Molecule": "COc1cc(O)c(C(=O)CC(C)=O)c(OC)c1",
    "System Tested": "OVCAR-8 ovarian",
    "Result Qualifier": ">",
    "TGI / µM": 100
  },
  {
    "Molecule": "O=C(CNc1nccs1)Nn1cnc2ccc(S(=O)(=O)Nc3nccs3)cc2c1=O",
    "System Tested": "OVCAR-8 ovarian",
    "Result Qualifier": ">",
    "TGI / µM": 100
  },
  {
    "Molecule": "C=C1C2C[C@@H]3OC4CC5O[C@]6(CC5OC4C(C)C3OC(=O)CC3CC[C@@H]4OC5C7OC8C[C@](CCC9CC(=C)[C@H](CCC(C[C@H]1C)O2)O9)(OC7C4O3)O[C@@H]85)C[C@@H]1O[C@@]2(CC(C)[C@@H]3OC(CC(=O)CCO)C(O)C[C@@H]3O2)CC(C)[C@@H]1O6 (stereo partly drawn)",
    "System Tested": "OVCAR-8 ovarian",
    "Result Qualifier": "=",
    "TGI / µM": 0.0172
  },
  {
    "Molecule": "Nc1nc2c(c(-c3ccccc3Cl)n1)COC/C2=C\\c1ccccc1Cl",
    "System Tested": "OVCAR-8 ovarian",
    "Result Qualifier": "=",
    "TGI / µM": 30.8
  },
  {
    "Molecule": "O=c1cc(-c2ccccc2)oc2ccc(OC/C(=N/O)c3ccc(F)cc3)cc12",
    "System Tested": "OVCAR-8 ovarian",
    "Result Qualifier": ">",
    "TGI / µM": 50
  }
]

###

- Tested on: TK-10 renal
- Protocol Notes: NCI tumour cell line growth inhibition, 48 h; in the data active = GI50 below about 0.43 µM; inactive = the rest
*1 amine or outer side, *2 acyl side, *3 side chain or, on linkers, in order; H or OH if unused. Where a SMILES comes first, the peptide text is derived from it. Bridges are numbered along the chain shown (N, C = ends). Roman numbers before positions name the chains, in order. [ ]: non-standard residue; d: D form. Actinocin(9to1) = Cc1c2oc3c(C)ccc(C(=O)[*:1])c3nc-2c(C(=O)[*:2])c(N)c1=O; NMeV = CN[CH](C(=O)O)C(C)C; Sar = CNCC(=O)O
Outcomes: active, inactive

[
  {
    "Compound": "O=c1cc(-c2ccccc2)oc2ccc(OC/C(=N/O)c3ccc(F)cc3)cc12",
    "Cat": "inactive"
  },
  {
    "Compound": "c1ccc2cc(Cn3cc[n+](Cc4ccc5ccccc5c4)c3)ccc2c1",
    "Cat": "inactive"
  },
  {
    "Compound": "Clc1ccccc1[C@@H]1C[C@@H]2Cc3cc(Br)c4ccccc4c3N1O2",
    "Cat": "inactive"
  },
  {
    "Compound": "O=C1Nc2ccccc2/C1=C\\c1cccc(/C=C2/C(=O)Nc3ccccc32)n1",
    "Cat": "active"
  },
  {
    "Compound": "C[C@]12CC[C@@H]3c4ccc(O)cc4CC[C@H]3[C@@H]1CC[C@@H]2NS(=O)(=O)c1cccc(Cl)c1",
    "Cat": "inactive"
  },
  {
    "Compound": "C=C(C)[C@@H]1CC[C@]2(COCCCNCCCN)CC[C@]3(C)[C@H](CC[C@@H]4[C@@]5(C)CC[C@H](OCCCN)C(C)(C)[C@@H]5CC[C@]43C)[C@@H]12",
    "Cat": "inactive"
  },
  {
    "Compound": "COC1CC(C)C(OC)c2cc(O)cc(c2O)NC(=O)/C(C)=C/C=C\\C(C)C(OC(N)=O)/C(C)=C\\C(C)C1OC (stereo not given)",
    "Cat": "inactive"
  },
  {
    "Compound": "Fc1ccc2[nH]cc(-c3nc(-c4c[nH]c5ccncc45)cs3)c2c1",
    "Cat": "inactive"
  },
  {
    "Compound": "Cc1c2oc3c(C)ccc(C(=O)OC(C)C4NC(=O)C(C(C)C)N(C)C(=O)CN(C)C(=O)C5CCCN5C(=O)C(C(C)C)NC4=O)c3nc-2c(C(=O)OC(C)C2NC(=O)C(C(C)C)N(C)C(=O)CN(C)C(=O)C3CCCN3C(=O)C(C(C)C)NC2=O)c(N)c1=O (stereo not given) (I: cyclo([Sar][NMeV]TVP) / II: cyclo([Sar][NMeV]TVP); linker I:3-II:3 via Actinocin(9to1); configuration not given here)",
    "Cat": "active"
  },
  {
    "Compound": "COc1ccc(-c2nsc3c2NC(=O)CC3c2ccc3c(c2)OCCO3)cc1 (stereo not given)",
    "Cat": "inactive"
  },
  {
    "Compound": "c1cc(CN2CCCNCCNCCCNCC2)ccc1CN1CCCNCCNCCCNCC1",
    "Cat": "inactive"
  },
  {
    "Compound": "COc1cc(OC)c(/C=C/C(=O)c2ccc(Nc3ncnc4ccccc34)cc2)c(OC)c1",
    "Cat": "inactive"
  },
  {
    "Compound": "N#Cc1ccc(CSc2ncnc3nc[nH]c23)cc1",
    "Cat": "inactive"
  },
  {
    "Compound": "O=C(Nc1ccc2ncnc(Nc3ccc(Oc4cccc(F)c4)c(Cl)c3)c2c1)c1ccc(CN2CCOCC2)cc1",
    "Cat": "inactive"
  },
  {
    "Compound": "O=C1/C(=C/c2ccc(F)c(F)c2)CN(C(=O)C(Cl)Cl)C/C1=C\\c1ccc(F)c(F)c1",
    "Cat": "active"
  }
]
